Taken from patent US20240197869A1.

experiment: PAMP screen: viability of human moDCs with PRR agonist and 22:0 Lyso PC; format: cell-based; conditions: human, human monocyte-derived dendritic cells (moDCs), Table 1-8; No PAMP, 20 μM 22:0 Lyso PC alone; human moDCs; read-out: Relative Viability (%) ± SD
measure: viability at 2 days, 20 μM (%)

{"columns": ["sampleSmiles", "recordedValue"],
 "data": [
  ["CCCCCCCCCCCCCCCCCCCCCC(=O)OC[C@@H](O)COP(=O)([O-])OCC[N+](C)(C)C", 120]
]}

###

tested on: human monocyte-derived dendritic cells (moDCs); experiment: DAMP screen: viability of human moDCs (CellTiter-Glo); conditions: 41.3 μM lipid + LPS 1 μg/mL, 2 days; relative to LPS-treated moDCs; Table 1-2

{"columns": ["compound", "systemName", "Relative Viability (%) ± SD"],
 "data": [
  ["CCCCCCC(=O)OC[C@@H](O)COP(=O)([O-])OCC[N+](C)(C)C", "human monocyte-derived dendritic cells (moDCs)", 97.9],
  ["CCCCCC(=O)OC[C@@H](O)COP(=O)([O-])OCC[N+](C)(C)C", "human monocyte-derived dendritic cells (moDCs)", 96.1],
  ["CCCCCCCCCCCCCCCC(=O)OC[C@H](COP(=O)([O-])OCC[N+](C)(C)C)OC(=O)CCCC=O [POVPC, reference compound]", "human monocyte-derived dendritic cells (moDCs)", 92.1],
  ["CCCCCCCCCCCCC(=O)OC[C@@H](O)COP(=O)([O-])OCC[N+](C)(C)C", "human monocyte-derived dendritic cells (moDCs)", 93.9],
  ["CCCCCCCC/C=C\\CCCCCCCC(=O)O[C@H](CO)COP(=O)([O-])OCC[N+](C)(C)C", "human monocyte-derived dendritic cells (moDCs)", 100.6],
  ["CCCCCCCCCCCCCCC(=O)OC[C@@H](O)COP(=O)([O-])OCC[N+](C)(C)C", "human monocyte-derived dendritic cells (moDCs)", 90.8],
  ["CCCCCCCCCCCCCCCCCC(=O)O[C@H](CO)COP(=O)([O-])OCC[N+](C)(C)C", "human monocyte-derived dendritic cells (moDCs)", 65.3]
]}
